# ASSAY INFO: Biodistribution in kidney of TA2 mouse bearing MA891 xenograft after 4 hrs
# Assay type: ADME, organism-based
# SETUP CONDITIONS: read-out: Drug uptake
READOUT KIND: tissue uptake at 4 h (%ID/g)
The figure you give is taken to be in %ID/g; do not add the unit.

Returns the measured tissue uptake at 4 h for the input molecule. Input: CSCC(=O)NC1[C@H](O)O[C@H](CO)[C@@H](O)[C@@H]1O (stereo partly specified)
13.2

* * *

# ASSAY INFO: Biodistribution in intestine of TA2 mouse bearing MA891 xenograft after 2 hrs
# Format: ADME, organism-based
# SETUP CONDITIONS: read-out: Drug uptake
READOUT KIND: tissue uptake at 2 h (%ID/g)
The figure you give is taken to be in %ID/g; do not add the unit.

Returns the measured tissue uptake at 2 h for the input compound. Input: CSCC(=O)NC1[C@H](O)O[C@H](CO)[C@@H](O)[C@@H]1O (stereo partly specified)
4.07

* * *

# ASSAY INFO: Biodistribution in blood of TA2 mouse bearing MA891 xenograft after 30 mins
# Format: ADME, organism-based
# SETUP CONDITIONS: read-out: Drug uptake
READOUT KIND: tissue uptake at 0.5 h (%ID/g)
The figure you give is taken to be in %ID/g; do not add the unit.

Returns the measured tissue uptake at 0.5 h for the input compound. Input: CSCC(=O)NC1[C@H](O)O[C@H](CO)[C@@H](O)[C@@H]1O (stereo partly specified)
3.32

* * *

# ASSAY INFO: Biodistribution in brain of TA2 mouse bearing MA891 xenograft after 30 mins
# Type: ADME, organism-based
# SETUP CONDITIONS: read-out: Drug uptake
READOUT KIND: tissue uptake at 0.5 h (%ID/g)
The figure you give is taken to be in %ID/g; do not add the unit.

Returns the measured tissue uptake at 0.5 h for the input compound. Input: CSCC(=O)NC1[C@H](O)O[C@H](CO)[C@@H](O)[C@@H]1O (stereo partly specified)
0.11

* * *

# ASSAY INFO: Biodistribution in heart of TA2 mouse bearing MA891 xenograft after 4 hrs
# Type: ADME, organism-based
# SETUP CONDITIONS: read-out: Drug uptake
READOUT KIND: tissue uptake at 4 h (%ID/g)
The figure you give is taken to be in %ID/g; do not add the unit.

Returns the measured tissue uptake at 4 h for the input compound. Input: CSCC(=O)NC1[C@H](O)O[C@H](CO)[C@@H](O)[C@@H]1O (stereo partly specified)
0.38

* * *

# ASSAY INFO: Partition coefficient, log P of the compound
# Format: physicochemical
# SETUP CONDITIONS: octanol/water
READOUT KIND: logP
Number only, please.

Returns the measured logP for the input compound. Input: CSCC(=O)NC1[C@H](O)O[C@H](CO)[C@@H](O)[C@@H]1O (stereo partly specified)
-2.92

* * *

# ASSAY INFO: Biodistribution in spleen of TA2 mouse bearing MA891 xenograft after 4 hrs
# Type: ADME, organism-based
# SETUP CONDITIONS: read-out: Drug uptake
READOUT KIND: tissue uptake at 4 h (%ID/g)
The figure you give is taken to be in %ID/g; do not add the unit.

Returns the measured tissue uptake at 4 h for the input compound. Input: CSCC(=O)NC1[C@H](O)O[C@H](CO)[C@@H](O)[C@@H]1O (stereo partly specified)
1.6

* * *

# ASSAY INFO: Biodistribution in blood of TA2 mouse bearing MA891 xenograft after 4 hrs
# Format: ADME, organism-based
# SETUP CONDITIONS: read-out: Drug uptake
READOUT KIND: tissue uptake at 4 h (%ID/g)
The figure you give is taken to be in %ID/g; do not add the unit.

Returns the measured tissue uptake at 4 h for the input compound. Input: CSCC(=O)NC1[C@H](O)O[C@H](CO)[C@@H](O)[C@@H]1O (stereo partly specified)
1.29

* * *

# ASSAY INFO: Biodistribution in intestine of TA2 mouse bearing MA891 xenograft after 4 hrs
# Type: ADME, organism-based
# SETUP CONDITIONS: read-out: Drug uptake
READOUT KIND: tissue uptake at 4 h (%ID/g)
The figure you give is taken to be in %ID/g; do not add the unit.

Returns the measured tissue uptake at 4 h for the input compound. Input: CSCC(=O)NC1[C@H](O)O[C@H](CO)[C@@H](O)[C@@H]1O (stereo partly specified)
1.29

* * *

# ASSAY INFO: Biodistribution in lung of TA2 mouse bearing MA891 xenograft after 2 hrs
# Type: ADME, organism-based
# SETUP CONDITIONS: read-out: Drug uptake
READOUT KIND: tissue uptake at 2 h (%ID/g)
The figure you give is taken to be in %ID/g; do not add the unit.

Returns the measured tissue uptake at 2 h for the input compound. Input: CSCC(=O)NC1[C@H](O)O[C@H](CO)[C@@H](O)[C@@H]1O (stereo partly specified)
1.48

* * *

# ASSAY INFO: Biodistribution in liver of TA2 mouse bearing MA891 xenograft after 2 hrs
# Assay type: ADME, organism-based
# SETUP CONDITIONS: read-out: Drug uptake
READOUT KIND: tissue uptake at 2 h
# output: number + unit

Returns the measured tissue uptake at 2 h for the input compound. Input: CSCC(=O)NC1[C@H](O)O[C@H](CO)[C@@H](O)[C@@H]1O (stereo partly specified)
4.75 %ID/g

* * *

# ASSAY INFO: Biodistribution in muscle of TA2 mouse bearing MA891 xenograft after 30 mins
# Format: ADME, organism-based, Muscle tissue
# SETUP CONDITIONS: read-out: Drug uptake
READOUT KIND: tissue uptake at 0.5 h (%ID/g)
The figure you give is taken to be in %ID/g; do not add the unit.

Returns the measured tissue uptake at 0.5 h for the input molecule. Input: CSCC(=O)NC1[C@H](O)O[C@H](CO)[C@@H](O)[C@@H]1O (stereo partly specified)
0.51

* * *

# ASSAY INFO: Biodistribution in stomach of TA2 mouse bearing MA891 xenograft after 4 hrs
# Type: ADME, organism-based
# SETUP CONDITIONS: read-out: Drug uptake
READOUT KIND: tissue uptake at 4 h
# output: number + unit

Returns the measured tissue uptake at 4 h for the input compound. Input: CSCC(=O)NC1[C@H](O)O[C@H](CO)[C@@H](O)[C@@H]1O (stereo partly specified)
1.41 %ID/g

* * *

# ASSAY INFO: Biodistribution in muscle of TA2 mouse bearing MA891 xenograft after 4 hrs
# Type: ADME, organism-based, Muscle tissue
# SETUP CONDITIONS: read-out: Drug uptake
READOUT KIND: tissue uptake at 4 h (%ID/g)
The figure you give is taken to be in %ID/g; do not add the unit.

Returns the measured tissue uptake at 4 h for the input molecule. Input: CSCC(=O)NC1[C@H](O)O[C@H](CO)[C@@H](O)[C@@H]1O (stereo partly specified)
0.33

* * *

# ASSAY INFO: Biodistribution in heart of TA2 mouse bearing MA891 xenograft after 2 hrs
# Assay type: ADME, organism-based
# SETUP CONDITIONS: read-out: Drug uptake
READOUT KIND: tissue uptake at 2 h

Returns the measured tissue uptake at 2 h for the input molecule. Input: CSCC(=O)NC1[C@H](O)O[C@H](CO)[C@@H](O)[C@@H]1O (stereo partly specified)
0.57 %ID/g

* * *

# ASSAY INFO: Biodistribution in liver of TA2 mouse bearing MA891 xenograft after 30 mins
# Type: ADME, organism-based
# SETUP CONDITIONS: read-out: Drug uptake
READOUT KIND: tissue uptake at 0.5 h (%ID/g)
The figure you give is taken to be in %ID/g; do not add the unit.

Returns the measured tissue uptake at 0.5 h for the input molecule. Input: CSCC(=O)NC1[C@H](O)O[C@H](CO)[C@@H](O)[C@@H]1O (stereo partly specified)
5.9

* * *

# ASSAY INFO: Biodistribution in kidney of TA2 mouse bearing MA891 xenograft after 2 hrs
# Format: ADME, organism-based
# SETUP CONDITIONS: read-out: Drug uptake
READOUT KIND: tissue uptake at 2 h (%ID/g)
The figure you give is taken to be in %ID/g; do not add the unit.

Returns the measured tissue uptake at 2 h for the input compound. Input: CSCC(=O)NC1[C@H](O)O[C@H](CO)[C@@H](O)[C@@H]1O (stereo partly specified)
10.8

* * *

# ASSAY INFO: Biodistribution in lung of TA2 mouse bearing MA891 xenograft after 4 hrs
# Type: ADME, organism-based
# SETUP CONDITIONS: read-out: Drug uptake
READOUT KIND: tissue uptake at 4 h (%ID/g)
The figure you give is taken to be in %ID/g; do not add the unit.

Returns the measured tissue uptake at 4 h for the input compound. Input: CSCC(=O)NC1[C@H](O)O[C@H](CO)[C@@H](O)[C@@H]1O (stereo partly specified)
0.98
